# assay-system: ATP-dependent translocase ABCB1 (Homo sapiens)
# Sequence (P08183 whole entry): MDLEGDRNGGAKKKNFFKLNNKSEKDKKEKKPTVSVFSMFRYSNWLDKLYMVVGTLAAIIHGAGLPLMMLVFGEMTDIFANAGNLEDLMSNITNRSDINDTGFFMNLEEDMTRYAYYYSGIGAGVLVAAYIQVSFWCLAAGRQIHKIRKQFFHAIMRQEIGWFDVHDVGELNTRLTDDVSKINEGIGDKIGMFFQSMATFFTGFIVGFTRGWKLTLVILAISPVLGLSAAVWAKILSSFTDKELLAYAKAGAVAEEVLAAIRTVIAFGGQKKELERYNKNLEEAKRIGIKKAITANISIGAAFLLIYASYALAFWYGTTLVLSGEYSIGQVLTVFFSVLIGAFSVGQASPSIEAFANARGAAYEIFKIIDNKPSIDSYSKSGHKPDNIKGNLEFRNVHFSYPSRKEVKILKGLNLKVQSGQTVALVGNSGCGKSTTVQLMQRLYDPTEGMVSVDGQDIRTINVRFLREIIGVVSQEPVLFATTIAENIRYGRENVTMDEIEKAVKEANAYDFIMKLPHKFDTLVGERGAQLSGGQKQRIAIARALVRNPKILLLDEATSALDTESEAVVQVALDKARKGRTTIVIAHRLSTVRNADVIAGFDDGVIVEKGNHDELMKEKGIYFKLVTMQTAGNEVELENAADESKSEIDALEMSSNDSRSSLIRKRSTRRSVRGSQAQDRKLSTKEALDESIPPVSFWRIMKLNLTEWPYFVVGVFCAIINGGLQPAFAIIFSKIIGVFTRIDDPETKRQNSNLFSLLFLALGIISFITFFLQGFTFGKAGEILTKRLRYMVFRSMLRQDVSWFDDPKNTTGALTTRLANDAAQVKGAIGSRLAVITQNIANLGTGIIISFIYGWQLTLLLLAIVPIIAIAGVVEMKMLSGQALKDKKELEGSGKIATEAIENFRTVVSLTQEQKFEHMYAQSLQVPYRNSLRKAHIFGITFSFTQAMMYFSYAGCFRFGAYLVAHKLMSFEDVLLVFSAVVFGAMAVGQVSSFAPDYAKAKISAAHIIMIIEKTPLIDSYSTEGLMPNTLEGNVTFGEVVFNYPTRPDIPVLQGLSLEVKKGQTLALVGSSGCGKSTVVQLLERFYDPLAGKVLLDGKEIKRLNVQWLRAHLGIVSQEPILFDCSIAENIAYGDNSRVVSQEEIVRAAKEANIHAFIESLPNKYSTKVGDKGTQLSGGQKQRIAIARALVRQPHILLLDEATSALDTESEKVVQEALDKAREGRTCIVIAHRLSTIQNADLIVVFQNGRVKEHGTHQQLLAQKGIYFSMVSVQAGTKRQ
# protocol-details: Inhibition of MDR1 (unknown origin) expressed in MDCK cells after 30 mins by Calcein-AM assay
So basically, if IC50 comes in under 3 µM it's y, and if it's 3 µM or more it's n.

molecule=COc1ccc(C(=O)Nc2ccc(-c3cccnc3)cc2F)cc1OC class=n

Dear colleague, could you confirm whether IC50 of COc1cc(C(=O)Nc2ccc(-c3cc(F)cc(F)c3)cc2NC(=O)[C@@H](C)NC(C)=O)cc(OC)c1OC falls below 3 µM? Thanks. n

Also check COc1cc(OC)c(C(=O)Nc2ccc(-c3ccncc3)cc2F)cc1OC y

Also COc1cc(C(=O)Nc2ccc(-c3ccncc3)cc2F)cc(OC)c1OC ? n

// next record COc1cc(C(=O)Nc2ccc(-c3cc(F)cc(F)c3)cn2)cc(OC)c1OC y

====

# protocol-details: Lipophilicity, logD of the compound at pH 7.4
# Type: physicochemical
# conditions-used: buffer
Entries whose logD is below 3 take rule met; entries at or above 3 take rule not met.

logD under 3? Item: COc1cc(OC)c(C(=O)Nc2ccc(-c3ccncc3)cc2F)cc1OC rule not met

Follow-up entry: COc1ccc(C(=O)Nc2ccc(-c3cccnc3)cc2F)cc1OC rule met

// query: O=C(Nc1ccc(-c2cccnc2)cc1F)c1ccccc1 rule met

Same read-out for COc1cc(OC)c(C(=O)N(C)c2ccc(-c3cccnc3)cc2F)cc1OC ? rule met

====

Each item that follows carries a reported log K.
# protocol-details: Partition coefficient, logK of the compound using methanol/pH 7.4 phosphate buffer by RP-chromatography
# Type: physicochemical
Reply with the value as a number alone.

Requested read-out: log K. Entry: O=C(Nc1ccc(-c2cccnc2)cc1F)c1cccnc1 -0.68

Follow-up entry: COc1cc(C(=O)N(C)c2ccc(-c3cccnc3)cc2F)cc(OC)c1OC -0.51

====

# protocol-details: Lipophilicity, logD of the compound at pH 7.4
# Assay type: physicochemical
# conditions-used: buffer
observation-type: logD
Give a plain numeric answer without units written out.

Please review the entries below; each comes with its answer.
molecule=COc1cc(OC)c(C(=O)Nc2ccc(-c3cccnc3)cn2)cc1OC observation_type=logD meas_value=3.03
molecule=COc1cc(OC)c(C(=O)Nc2ccc(-c3cc(F)cc(F)c3)cn2)cc1OC observation_type=logD meas_value=3.66
molecule=COc1cc(OC)c(C(=O)Nc2ccc(-c3cccnc3)cc2F)cc1OC observation_type=logD meas_value=2.84

In the following, a different molecule is considered.
Suppose we examine the molecule COc1cc(C(=O)Nc2ccc(-c3cccnc3)cn2)cc(OC)c1OC ; what logD value has been reported? 2.39

====

# protocol-details: Partition coefficient, logK of the compound using methanol/pH 7.4 phosphate buffer by RP-chromatography
# Assay type: physicochemical
Note to self: log K under -0.03 means MET, ties and anything higher get NOT MET.

Completed entries (count: 5):
molecule=COc1cc(OC)cc(C(=O)Nc2ccc(-c3cccnc3)cc2F)c1 class=MET
molecule=COc1cc(OC)c(C(=O)Nc2ccc(-c3cccnc3)cc2F)cc1OC class="NOT MET"
molecule=COc1cc(C(=O)Nc2ccc(-c3cccnc3)cn2)cc(OC)c1OC class=MET
molecule=COc1cc(C(=O)Nc2ccc(-c3cc(F)cc(F)c3)cn2)cc(OC)c1OC class="NOT MET"
molecule=COc1cc(OC)c(C(=O)Nc2ccc(-c3cccnc3)cc2F)c(OC)c1 class=MET

Below -0.03 on log K? Entry COc1cc(OC)c(C(=O)Nc2ccc(-c3ccncc3)cc2F)cc1OC NOT MET
